# Test system: Danio rerio larvae (5 dpf)
# experimentalProtocol: activity during first hour (no stimuli), difference vs DMSO (percentage points (treated minus DMSO)); higher = more of the behaviour than the DMSO vehicle control
# conditionContext: 10 µM; exposure time: 3 h pre-incubation + 3 h imaging
Where a name gives a salt, the structure may show the parent alone.
param class (str): category from activity during first hour; see ranges bucket A (below -4), bucket B (-4 to below 1), bucket C (1 or more)

As a guide, the following entries are already answered.
{"compound": "COc1cc([C@@H]2c3cc4c(cc3[C@@H](O[C@@H]3O[C@@H]5CO[C@@H](C)O[C@H]5[C@H](O)[C@H]3O)[C@H]3COC(=O)[C@H]23)OCO4)cc(OC)c1O [Etoposide]", "systemUnderTest": "Danio rerio larvae (5 dpf)", "classAssignment": "bucket C"}
{"compound": "N[C@@H]1[C@H]2CN(c3nc4c(cc3F)c(=O)c(C(=O)O)cn4-c3ccc(F)cc3F)C[C@@H]12 [Trovafloxacin mesylate]", "systemUnderTest": "Danio rerio larvae (5 dpf)", "classAssignment": "bucket C"}
{"compound": "CN1CC[C@@H](NC(=O)Nc2ccc(C#N)cc2)C[C@@H]1c1nc2ccccc2[nH]1", "systemUnderTest": "Danio rerio larvae (5 dpf)", "classAssignment": "bucket A"}

Request: Sort CC(=O)O[C@]1(C(C)=O)CC[C@H]2[C@@H]3C=C(C)C4=CC(=O)CC[C@]4(C)[C@H]3CC[C@@]21C [Megestrol Acetate] into one of the categories.
Result: bucket A

Request: # bin label for Cc1nnc(C(C)C)n1C1C[C@H]2CC[C@@H](C1)N2CC[C@H](NC(=O)C1CCC(F)(F)CC1)c1ccccc1 (stereo in doubt)
Result: bucket B

Request: Assign a category based on measured activity during first hour for "Cc1nc(-c2ccc(OCC(C)C)c(C#N)c2)sc1C(=O)O" and give only the class name.
Result: bucket B

Request: Just checking, what class would you give "Nc1nc2c(ncn2COCCO)c(=O)[nH]1" here?
Result: bucket B

Request: For the record COc1cc2nc(N3CCN(C(=O)c4ccco4)CC3)nc(N)c2cc1OC [Prazosin hydrochloride] , report the class its activity during first hour corresponds to.
Result: bucket B

Request: Which bin should I file "COc1ccccc1Oc1c(NS(=O)(=O)c2ccc(C(C)(C)C)cc2)nc(-c2ncccn2)nc1OCCO" under?
Result: bucket C

Request: Hi, small favor: classify "O=C(Nc1c(Cl)cncc1Cl)c1ccc(OC(F)F)c(OCC2CC2)c1" by its activity during first hour when you get a moment.
Result: bucket A

Request: Any idea which band Nc1nc(NC2CC2)c2ncn([C@H]3C=C[C@@H](CO)C3)c2n1 [Abacavir hemisulfate] is in?
Result: bucket C

Request: Category lookup for the compound "CCCCc1nc(Cl)c(CO)n1Cc1ccc(-c2ccccc2-c2nnn[nH]2)cc1"
Result: bucket C

Request: In plain terms, what class is "N#Cc1ccc(C(c2ccc(C#N)cc2)n2cncn2)cc1" ?
Result: bucket B

Request: # bin lookup: classify "CC(=O)S[C@@H]1CC2=CC(=O)CC[C@]2(C)[C@H]2CC[C@@]3(C)[C@@H](CC[C@@]34CCC(=O)O4)[C@H]12" by its activity during first hour
Result: bucket B

Request: Class (by measured activity during first hour) for "CN(C)CCc1c[nH]c2ccc(C[C@H]3COC(=O)N3)cc12"
Result: bucket C

Request: Lab note: sort "O=C(O)c1cc(/N=N/c2ccc(S(=O)(=O)Nc3ccccn3)cc2)ccc1O" into the matching activity during first hour band.
Result: bucket C

Request: Band assignment needed for COc1ccc([C@@H]2Sc3ccccc3N(CCN(C)C)C(=O)[C@@H]2OC(C)=O)cc1 [Diltiazem hydrochloride] please.
Result: bucket B

Request: Category of COCCc1ccc(OCC(O)CNC(C)C)cc1 (stereo unspecified) [Metoprolol tartrate] , please.
Result: bucket C

Request: Bin this entry: "C[C@H](Cc1cc2c(c(C(N)=O)c1)N(CCCO)CC2)NCCOc1ccccc1OCC(F)(F)F"
Result: bucket B

Request: Which bin, given its activity during first hour, does Cc1ccsc1C(=CCCN1CCC[C@@H](C(=O)O)C1)c1sccc1C [Tiagabine hydrochloride] occupy?
Result: bucket C

Request: Which of the defined bands does the recorded activity during first hour of CN(C)CCC[C@@]1(c2ccc(F)cc2)OCc2cc(C#N)ccc21 [Escitalopram oxalate] sit within?
Result: bucket A
